# EXPERIMENT_DESCRIPTION: Cytotoxicity in 2.2.15 cells by neutral red uptake
# DETAILS: human

# COMPOUND, CC50 at 7 days
rows = [
    ("CCCCCCCCCCCCCCCCCCOCCOP(=O)(CO[C@H](COC)Cn1cnc2c(N)ncnc21)OCc1ccccc1 (stereo partly drawn) [Compound 146]", "> 100 µM"),
    ("CCCCCCCCCCCCCCCCCCOCCOP(=O)(CO[C@H](CO)Cn1cnc2c(N)ncnc21)OCc1ccccc1 (stereo partly drawn) [Compound 218]", "> 100 µM"),
    ("CCCCCCCCCCCCCCCCCCOCCOP(=O)(CO[C@H](CO)Cn1ccc(N)nc1=O)OCc1ccccc1 (stereo partly drawn) [Compound 219]", "> 100 µM"),
    ("CCCCCCCCCCCCCCCCCCOCCOP(=O)(COCCn1cnc2c(=O)[nH]c(N)nc21)Oc1ccccc1 (stereo not drawn) [Compound 19]", "> 100 µM"),
    ("CCCCCCCCCCCCCCCCCCOCCOP(=O)(COCCn1cnc2c(=O)[nH]c(N)nc21)OCc1ccccc1 (racemic) [Compound 1]", "> 100 µM"),
    ("CCCCCCCCCCCCCCCCCCOCCOP(=O)(CO[C@H](C)Cn1cnc2c(=O)[nH]c(N)nc21)OCc1ccccc1 (stereo partly drawn) [Compound 73]", "63 µM"),
    ("CCCCCCCCCCCCCCCCCCOCCOP(=O)(COCCn1cnc2c(N)ncnc21)OCc1ccccc1 (stereo not drawn) [Compound 2]", "> 100 µM"),
    ("CCCCCCCCCCCCCCCCCCOCCOP(=O)(CO[C@H](C)Cn1cnc2c(N)ncnc21)OCc1ccccc1 (stereo partly drawn) [Compound 74]", "64 µM"),
    ("CCCCCCCCCCCCCCCCCCOCCOP(=O)(CO[C@H](COC)Cn1cnc2c(N)ncnc21)Oc1ccccc1 (stereo partly drawn) [Compound 164]", "> 100 µM"),
]

###

# Test system: HPV-16
# EXPERIMENT_DESCRIPTION: HPV-16 origin replication in HEK 293 cells, qPCR
# Format: cell-based
# DETAILS: HEK293, 48 h
# Description: An origin-containing plasmid was co-transfected with HPV-16 E1 and E2 protein expression vectors into HEK 293 cells. At 4 hr post-transfection, cells were treated with compound dilutions and the cells were incubated for 48 hr. Replication of the virus origin was detected with DpnI and exonuclease III to remove unreplicated input bacterial plasmid DNA. Remaining replicated DNA was quantified by qPCR. Toxicity was determined by trypan blue exclusion.
OUTCOME_MEASURE: EC50 (µM)

# COMPOUND, MEASUREMENT
measured = [
    ("CCCCCCCCCCCCCCCCCCOCCOP(=O)(COCCn1cnc2c(=O)[nH]c(N)nc21)Oc1ccccc1 (stereo not shown)", 5.27),
]

###

# Test system: human foreskin fibroblast (HFF) cells
# EXPERIMENT_DESCRIPTION: Cytotoxicity in HFF cells in parallel to HSV-2 assay
# DETAILS: HFF cells

# COMPOUND, SYSTEM_NAME, CC50 [µM]
rows = [
    ("CCCCCCCCCCCCCCCCCCOC[C@H](COP(=O)(CO[C@H](CO)Cn1cnc2c(N)ncnc21)OCc1ccccc1)OCc1ccccc1 (some centres unmarked)", "human foreskin fibroblast (HFF) cells", 37.1),
    ("CCCCCCCCCCCCCCCCCCOC[C@H](COP(=O)(CO[C@H](CO)Cn1ccc(N)nc1=O)OCc1ccccc1)OCc1ccccc1 (some centres unmarked)", "human foreskin fibroblast (HFF) cells", 34.8),
]
